Target: full-length beta-Catenin (Uniprot ID P35222) (Homo sapiens)
Construct: 10 nM full-length beta-Catenin (Uniprot ID P35222)
Sequence (P35222 whole entry): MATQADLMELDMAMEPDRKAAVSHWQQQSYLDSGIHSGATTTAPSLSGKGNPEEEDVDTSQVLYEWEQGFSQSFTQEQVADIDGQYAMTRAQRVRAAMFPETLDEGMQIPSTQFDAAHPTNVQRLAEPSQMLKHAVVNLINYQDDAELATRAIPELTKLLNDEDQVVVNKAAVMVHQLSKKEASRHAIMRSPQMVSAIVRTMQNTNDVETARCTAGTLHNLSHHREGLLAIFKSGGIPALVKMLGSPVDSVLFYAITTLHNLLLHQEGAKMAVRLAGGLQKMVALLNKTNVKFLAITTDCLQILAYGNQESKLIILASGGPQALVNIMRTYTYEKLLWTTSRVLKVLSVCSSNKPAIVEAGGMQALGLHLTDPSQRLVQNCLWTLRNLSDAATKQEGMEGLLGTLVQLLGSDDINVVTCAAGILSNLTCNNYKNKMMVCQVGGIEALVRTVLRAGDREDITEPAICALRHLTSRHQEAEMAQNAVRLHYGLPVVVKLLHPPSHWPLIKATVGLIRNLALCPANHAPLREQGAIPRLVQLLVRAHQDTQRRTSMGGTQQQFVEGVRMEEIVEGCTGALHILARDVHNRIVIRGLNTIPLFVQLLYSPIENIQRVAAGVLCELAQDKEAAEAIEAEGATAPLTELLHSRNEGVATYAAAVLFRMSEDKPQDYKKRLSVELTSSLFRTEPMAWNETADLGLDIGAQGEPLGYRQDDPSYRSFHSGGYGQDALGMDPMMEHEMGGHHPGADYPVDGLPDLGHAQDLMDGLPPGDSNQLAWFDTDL
Experiment: Fluorescence polarization IC50 (beta-catenin / 5FAM-TCF4 10-53 competition)
Type: binding
Details: fluorescence polarization; read-out: beta-Catenin FP IC50
Reported values of pIC50 for individual entries
The meaning of pIC50 here: minus log10 of the concentration in molar units.

Sample records with pIC50:
1. CC(=O)N1CCC[C@]12CC=CCCCC1(CCCC=CCCCOC(=O)N3CC[C@@](C(=O)N[C@@H](Cc4ccsc4)C(=O)N[C@@H](Cc4csc5ccccc45)C(=O)N[C@@H](CCC(N)=O)C(N)=O)(C3)NC(=O)[C@H](CC(N)=O)NC(=O)[C@H](Cc3ccccc3)NC(=O)[C@H](C)NC(=O)[C@H](C)NC(=O)[C@H](CC(C)C)NC(=O)[C@H](CC(N)=O)NC1=O)NC(=O)[C@H](CC(C)(C)C)NC(=O)[C@H](CC(=O)O)NC2=O (stereo partly drawn) [I-1570]    5.87
2. CC(=O)N1CCC[C@]12CC=CCCCC1(CCCC=CCCCOC(=O)N3CC[C@@](C(=O)N[C@@H](Cc4ccccc4)C(=O)N[C@@H](Cc4csc5ccccc45)C(=O)N[C@@H](CCC(N)=O)C(N)=O)(C3)NC(=O)[C@H](CC3CCCCC3)NC(=O)[C@H](Cc3ccccc3)NC(=O)[C@H](C)NC(=O)[C@H](CCCCNC(C)C)NC(=O)[C@H](CCC(N)=O)NC(=O)[C@H](CC(=O)O)NC1=O)NC(=O)[C@H](CC(C)(C)C)NC(=O)[C@H](CC(N)=O)NC2=O (stereo partly drawn) [I-1650]    5.77
3. CCNC(=O)[C@H](CCC(N)=O)NC(=O)[C@H](Cc1csc2ccccc12)NC(=O)[C@H](Cc1ccccc1Cl)NC(=O)[C@]12CCN(C1)C(=O)OCCCC=CCCCC1(CCCC=CC[C@]3(CCCN3C(C)=O)C(=O)N[C@@H](CC(=O)O)C(=O)N[C@@H](CC(C)(C)C)C(=O)N1)C(=O)N[C@@H](CC(=O)O)C(=O)N[C@@H](Cc1cccc(C(=O)O)c1)C(=O)N[C@@H](C)C(=O)N[C@@H](C)C(=O)N[C@@H](Cc1ccccc1)C(=O)N[C@@H](CC(C)C)C(=O)N2 (stereo partly drawn) [I-1672]    7.40
4. CC(=O)N1CCC[C@]12CC=CCCCC1(CCCC=CCCCCCC[C@@](C)(C(=O)N[C@@H](Cc3ccccc3)C(=O)N[C@@H](Cc3csc4ccccc34)C(=O)N[C@@H](CCC(N)=O)C(N)=O)NC(=O)[C@H](C(C)C)NC(=O)[C@H](Cc3ccccc3)NC(=O)[C@H](C)NC(=O)[C@H](C)NC(=O)[C@H](CC(=O)O)NC(=O)[C@H](CC(=O)NC3CC3)NC1=O)NC(=O)[C@H](C)NC(=O)[C@H](CC(=O)O)NC2=O (stereo partly drawn) [I-538]    5.30
5. CC(=O)N1CCC[C@]12CC=CCCCC1(CCCC=CCCCOC(=O)N3CC[C@@](C(=O)N[C@@H](Cc4cccc(-c5ccccc5)c4)C(=O)N[C@@H](Cc4ccsc4)C(=O)N[C@@H](CCC(N)=O)C(N)=O)(C3)NC(=O)[C@H](CC(C)C)NC(=O)[C@H](Cc3ccccc3)NC(=O)[C@H](C)NC(=O)[C@H](C)NC(=O)[C@H](Cc3cccc(C(=O)O)c3)NC(=O)[C@H](CC(=O)O)NC1=O)NC(=O)[C@H](CC(C)(C)C)NC(=O)[C@H](CC(=O)O)NC2=O (stereo partly drawn) [I-2254]    5.24
6. CC(=O)N1CCC[C@]12CC=CCCCC1(CCCC=CCCCOC(=O)N3CC[C@@](C(=O)N[C@@H](Cc4ccccc4)C(=O)N[C@@H](Cc4csc5ccccc45)C(=O)N[C@@H](CCC(N)=O)C(N)=O)(C3)NC(=O)[C@H](CC(N)=O)NC(=O)[C@H](Cc3ccccc3)NC(=O)[C@H](C)NC(=O)[C@H](CCCCNC(C)C)NC(=O)[C@H]([C@@H](C)O)NC(=O)[C@H](CC(=O)O)NC1=O)NC(=O)[C@H](CC(C)(C)C)NC(=O)[C@H](CC(N)=O)NC2=O (stereo partly drawn) [I-1602]    6.44

// sample CC(=O)N1CCC[C@]12CC=CCCCC1(CCCC=CCCCCCC[C@@](C)(C(=O)N[C@@H](Cc3ccsc3)C(=O)N[C@@H](Cc3csc4ccccc34)C(N)=O)NC(=O)[C@H](CC(N)=O)NC(=O)[C@H](Cc3ccccc3)NC(=O)[C@H](C)NC(=O)[C@H](C)NC(=O)[C@H](CCC(=O)O)NC(=O)[C@H](CC(=O)O)NC1=O)NC(=O)[C@H](CC(C)C)NC(=O)[C@H](CC(=O)O)NC2=O (stereo partly drawn) [I-716] , its pIC50 was 7.04

// sample CC(=O)N1CCC[C@]12CC=CCCCC1(CCCC=CCCCOC(=O)N3CC[C@@](C(=O)N[C@@H](Cc4ccsc4)C(=O)N[C@@H](Cc4csc5ccccc45)C(=O)N[C@@H](CCC(N)=O)C(N)=O)(C3)NC(=O)[C@H](CCCNC(=N)N)NC(=O)[C@H](Cc3ccccc3)NC(=O)[C@H](C)NC(=O)[C@H](C)NC(=O)[C@H]([C@@H](C)O)NC(=O)[C@H](CC(N)=O)NC1=O)NC(=O)[C@H](CC(C)(C)C)NC(=O)[C@H](CC(=O)O)NC2=O (stereo partly drawn) [I-1883] , its pIC50 was 6.05

// sample CC(=O)N1CCC[C@]12CC=CCCCC1(CCCC=CCCCOC(=O)N3CC[C@@](C(=O)N[C@@H](Cc4ccccc4)C(=O)N[C@@H](Cc4csc5ccccc45)C(=O)N[C@@H](CC(=O)N4CCOCC4)C(N)=O)(C3)NC(=O)[C@H](CC(C)C)NC(=O)[C@H](Cc3ccccc3)NC(=O)[C@H](C)NC(=O)[C@H](CCCCNC(=O)CN3CCOCC3)NC(=O)[C@H](CCC(N)=O)NC(=O)[C@H](CC(=O)O)NC1=O)NC(=O)[C@H](CC1CCCCC1)NC(=O)[C@H](CC(N)=O)NC2=O (stereo partly drawn) [I-2527] , its pIC50 was 6.58

These entries and their values trace back to patent US20240116985A1.
